The values you see were collected from patent US20260176270A1.

Would you kindly list IC50 for each of these compounds?
System: phosphorylation of CDK1 at Thr14 in HCC1806 cells
assay-text: Cell lysate AlphaLISA assay measuring inhibition of phosphorylation of CDK1 Thr14
Assay type: cell-based
recorded-conditions: 4 hours, read-out: Cellular IC50

See these solved cases before continuing.
- compound: "Cc1c(-c2c(N)c(C(N)=O)cc3nccnc23)ccc(F)c1O (atropisomer, axis not shown) [Compound 295]"
  study-target: "phosphorylation of CDK1 at Thr14 in HCC1806 cells"
  value: "50 to 500 nM"
- compound: "Cc1ccc(-c2c(N)c(C(N)=O)nc3cccnc23)c(C)c1O (atropisomer, axis not shown) [Compound 287]"
  study-target: "phosphorylation of CDK1 at Thr14 in HCC1806 cells"
  value: "≥ 5000 nM"
- compound: "Cc1ccc(O)c(C)c1-c1c(N)c(C(N)=O)nc2nccnc12 (single isomer, unassigned) [Compound 127]"
  study-target: "phosphorylation of CDK1 at Thr14 in HCC1806 cells"
  value: "< 50 nM"
- compound: "Cc1c(-c2c(N)c(C(N)=O)cc3nccnc23)ccc(F)c1O (atropisomer, axis not shown) [Compound 307]"
  study-target: "phosphorylation of CDK1 at Thr14 in HCC1806 cells"
  value: "≥ 5000 nM"
- compound: "COc1cncc(-c2c(N)c(C(N)=O)nc3cccnc23)c1C [Compound 153]"
  study-target: "phosphorylation of CDK1 at Thr14 in HCC1806 cells"
  value: "500 to 1000 nM"
- compound: "Cc1c(O)cccc1-c1c(N)c(C(N)=O)cc2cc(Cl)cnc12 (atropisomer, axis not shown)"
  study-target: "phosphorylation of CDK1 at Thr14 in HCC1806 cells"
  value: "50 to 500 nM"
- compound: "Cc1cnc2cc(C(N)=O)c(N)c(-c3c(C)ccc(O)c3C)c2n1 [Compound 156]"
  study-target: "phosphorylation of CDK1 at Thr14 in HCC1806 cells"
  value: "50 to 500 nM"
- compound: "Cc1ccc(O)c(C)c1-c1c(N)c(C(N)=O)nc2ccc(Cl)cc12 (single isomer, unassigned) [Compound 54]"
  study-target: "phosphorylation of CDK1 at Thr14 in HCC1806 cells"
  value: "≥ 5000 nM"

Look at each compound and report its IC50.
1. Cc1nc2cc(C(N)=O)c(N)c(-c3cccc(O)c3C)c2nc1C (single isomer, unassigned) [Compound 93]
2. Cc1c(O)cc(Cl)cc1-c1c(N)c(C(N)=O)nc2cccnc12 [Compound 248]
3. Cc1cnc2c(-c3c(C)ccc(O)c3C)c(N)c(C(N)=O)cc2n1 (atropisomer, axis not shown) [Compound 222]
4. Cc1c(O)cccc1-c1c(N)c(C(N)=O)cc2ncc(C(F)(F)F)nc12 [Compound 115]
5. Cc1ccc(O)c(C)c1-c1c(N)c(C(N)=O)nc2c(C)cccc12 (single isomer, unassigned)
6. Cc1c(O)cccc1-c1c(N)c(C(N)=O)nc2cc(C(F)(F)F)cnc12 (atropisomer, axis not shown) [Compound 166]
7. Cc1ccc2c(-c3cccc(O)c3C)c(N)c(C(N)=O)nc2c1 (single isomer, unassigned) [Compound 50]

1: ≥ 5000 nM; 2: 1000 to 5000 nM; 3: < 50 nM; 4: 500 to 1000 nM; 5: ≥ 5000 nM; 6: 50 to 500 nM; 7: ≥ 5000 nM

Look at each compound and report its IC50.
1. Cc1ccc(O)c(C)c1-c1c(N)c(C(N)=O)nc2nccnc12 (single isomer, unassigned) [Compound 128]
2. Cc1c(O)cccc1-c1c(N)c(C(N)=O)cc2ncc(C(F)(F)F)nc12 (single isomer, unassigned) [Compound 124]
3. NC(=O)c1nc2cccnc2c(-c2cccc3[nH]nc(F)c23)c1N (atropisomer, axis not shown) [Compound 304]
4. NC(=O)c1nc2cccnc2c(-c2c(F)ccc3[nH]ncc23)c1N (atropisomer, axis not shown) [Compound 245]
5. Cc1ccc(O)c(C)c1-c1c(N)c(C(N)=O)cc2nc(C(F)(F)F)cnc12 (single isomer, unassigned) [Compound 112]
6. Cc1c(O)cccc1-c1c(N)c(C(N)=O)cc2c1ncc(=O)n2C (atropisomer, axis not shown) [Compound 284]
7. Cc1ccc(O)c(C)c1-c1c(N)c(C(N)=O)cc2cccnc12 (single isomer, unassigned) [Compound 66]
8. Cc1c(O)cccc1-c1c(N)c(C(N)=O)nc2cc(C(F)(F)F)ccc12 [Compound 59]

1: ≥ 5000 nM; 2: 50 to 500 nM; 3: ≥ 5000 nM; 4: ≥ 5000 nM; 5: 50 to 500 nM; 6: ≥ 5000 nM; 7: 50 to 500 nM; 8: 1000 to 5000 nM

Look at each compound and report its IC50.
1. Cc1ccc(O)c(C)c1-c1c(N)c(C(N)=O)nc2ccc(F)cc12 [Compound 20]
2. Cc1ccc(O)c(C)c1-c1c(N)c(C(N)=O)nc2cccnc12 (single isomer, unassigned) [Compound 9]
3. Cc1n[nH]c2cccc(-c3c(N)c(C(N)=O)cc4nccnc34)c12 (single isomer, unassigned) [Compound 118]
4. CCn1ccc2cc(C(N)=O)c(N)c(-c3cccc(O)c3C)c2c1=O [Compound 324]
5. Cc1c(O)cccc1-c1c(N)c(C(N)=O)cc2c1ncc(=O)n2C (atropisomer, axis not shown) [Compound 283]

1: 1000 to 5000 nM; 2: < 50 nM; 3: 1000 to 5000 nM; 4: 500 to 1000 nM; 5: ≥ 5000 nM

Item under review: Cc1ccc(O)c(C)c1-c1c(N)c(C(N)=O)cc2nc(C(F)(F)F)cnc12 (single isomer, unassigned) [Compound 111] . Reported IC50?
≥ 5000 nM

====

study-target: PKMYT1 (Homo sapiens, UniProt Q99640)
Sequence (Q99640 1-499): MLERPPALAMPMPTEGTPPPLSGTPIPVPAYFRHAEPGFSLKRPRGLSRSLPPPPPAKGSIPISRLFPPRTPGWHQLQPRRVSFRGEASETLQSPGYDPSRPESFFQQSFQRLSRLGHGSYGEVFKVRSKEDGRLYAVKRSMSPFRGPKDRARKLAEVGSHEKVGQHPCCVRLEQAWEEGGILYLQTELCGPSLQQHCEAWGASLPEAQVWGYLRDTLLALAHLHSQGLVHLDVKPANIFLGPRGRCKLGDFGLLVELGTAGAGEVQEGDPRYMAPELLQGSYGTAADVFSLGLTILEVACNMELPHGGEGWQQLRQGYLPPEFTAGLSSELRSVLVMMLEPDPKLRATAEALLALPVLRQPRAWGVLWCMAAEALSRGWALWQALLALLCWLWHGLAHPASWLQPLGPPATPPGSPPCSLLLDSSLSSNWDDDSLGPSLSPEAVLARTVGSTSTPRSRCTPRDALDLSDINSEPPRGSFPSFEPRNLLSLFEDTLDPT
Would you kindly list IC50 for each of these molecules?

- molecule: "NC(=O)c1cc2nccnc2c(-c2c(Cl)ccc3[nH]ncc23)c1N [Compound 142]"
  IC50: "50 to 500 nM"
- molecule: "NC(=O)c1cc2nccnc2c(-c2c(Cl)ccc3[nH]ncc23)c1N (atropisomer, axis not shown) [Compound 246]"
  IC50: "50 to 500 nM"
- molecule: "NC(=O)c1nc2cccnc2c(-c2cnccc2C(F)(F)F)c1N [Compound 259]"
  IC50: "500 to 1000 nM"
- molecule: "Cc1ccc(O)cc1-c1c(N)c(C(N)=O)cc2nccnc12 (atropisomer, axis not shown; (P)) [Compound 117]"
  IC50: "1000 to 5000 nM"
- molecule: "Cc1cncc(C2=c3ncccc3=NC(C(N)=O)C2N)c1C (centres unmarked) [Compound 212]"
  IC50: "50 to 500 nM"
- molecule: "Cc1c(O)cccc1-c1c(N)c(C(N)=O)cc2cc(Cl)cnc12 (atropisomer, axis not shown) [Compound 179]"
  IC50: "< 50 nM"
- molecule: "Cc1c(O)cccc1-c1c(N)c(C(N)=O)cc2nc(O)c(C(F)(F)F)nc12 [Compound 137]"
  IC50: "1000 to 5000 nM"
- molecule: "Cc1ccc(O)c(C)c1-c1c(N)c(C(N)=O)nc2ccccc12 (atropisomer, axis not shown; (P)) [Compound 45]"
  IC50: "1000 to 5000 nM"

Look at each molecule and report its IC50.
1. Cc1ccc2c(-c3cccc(O)c3C)c(N)c(C(N)=O)nc2c1 [Compound 46]
2. NC(=O)c1nc2cccnc2c(-c2cccc3c2CCN3)c1N [Compound 160]

1: 1000 to 5000 nM; 2: ≥ 5000 nM

Look at each molecule and report its IC50.
1. NC(=O)c1cc2nccnc2c(-c2cccc3sncc23)c1N [Compound 214]
2. COc1nc2cc(C(N)=O)c(N)c(-c3cccc(O)c3C)c2nc1C (atropisomer, axis not shown) [Compound 187]
3. Cc1c(-c2c3c(cc4nccnc24)C(=O)NC(C)(C)N3)ccc(F)c1O (atropisomer, axis not shown) [Compound 312]

1. 500 to 1000 nM
2. < 50 nM
3. ≥ 5000 nM

Item under review: Cc1cnc2c(-c3cccc(O)c3C)c(N)c(C(N)=O)cc2n1 (atropisomer, axis not shown) [Compound 209] . Reported IC50?
< 50 nM
